Tested on: Mycobacterium
assay_info: In vitro anti-mycobacterial activity against Mycobacterium smegmatis determined by the MTT method
Type: functional
parameter: MIC90 (µM)

{"columns": ["compound", "measurement_unit", "observed_measurement"],
 "data": [
  ["CC(=O)NC[C@H]1CN(c2ccn(-c3ccccc3)c2)C(=O)O1", "µM", 32.8],
  ["CC(=O)NC[C@H]1CN(c2ccn(-c3cccc(F)c3)c2)C(=O)O1", "µM", 39.8],
  ["NNC(=O)c1ccncc1 [ISONIAZID]", "µM", 4.7],
  ["CC(=O)NC[C@H]1CN(c2ccc(N3CCSCC3)c(F)c2)C(=O)O1 [SUTEZOLID]", "µM", 5],
  ["CC(=O)NC[C@H]1CN(c2ccn(-c3ccc(F)cc3)c2)C(=O)O1", "µM", 5.8],
  ["CC(=O)NC[C@H]1CN(c2ccn(-c3ccccc3F)c2)C(=O)O1", "µM", 8.9],
  ["CC(=O)NC[C@H]1CN(c2ccn(-c3ccc(N4CCOCC4)c(F)c3)c2)C(=O)O1", "µM", 100],
  ["CC(=O)NC[C@H]1CN(c2ccn(-c3ccc(N4CCSCC4)c(F)c3)c2)C(=O)O1", "µM", 11.8]
]}

* * *

System: MT4
assay_info: Cytotoxicity of compound against mock-infected MT-4 cells was evaluated by MTT assay
Assay type: functional
run_parameters: Homo sapiens
Quick list: CC50 per entry.
parameter: CC50

{"columns": ["compound", "observed_measurement"],
 "data": [
  ["CC(=O)NC[C@H]1CN(c2ccn(-c3ccc(F)cc3)c2)C(=O)O1", "100 µM"],
  ["CC(=O)NC[C@H]1CN(c2ccn(-c3ccccc3F)c2)C(=O)O1", "33.3 µM"],
  ["CC(=O)NC[C@H]1CN(c2ccc(N3CCSCC3)c(F)c2)C(=O)O1 [SUTEZOLID]", "> 100 µM"],
  ["CC(=O)NC[C@H]1CN(c2ccn(-c3ccccc3)c2)C(=O)O1", "> 100 µM"],
  ["CC(=O)NC[C@H]1CN(c2ccn(-c3ccc(N4CCSCC4)c(F)c3)c2)C(=O)O1", "20 µM"],
  ["CC(=O)NC[C@H]1CN(c2ccn(N3CCOCC3)c2)C(=O)O1", "> 100 µM"],
  ["CC(=O)NC[C@H]1CN(c2ccn(-c3ccc(N4CCOCC4)c(F)c3)c2)C(=O)O1", "> 100 µM"],
  ["NNC(=O)c1ccncc1 [ISONIAZID]", "> 100 µM"],
  ["CC(=O)NC[C@H]1CN(c2ccn(-c3cccc(F)c3)c2)C(=O)O1", "> 100 µM"]
]}

* * *

Tested on: Mycobacterium tuberculosis
assay_info: In vitro anti-mycobacterial activity against Mycobacterium tuberculosis C.I. 1104 was determined
Type: functional

{"columns": ["compound_smiles", "MIC50"],
 "data": [
  ["CC(=O)NC[C@H]1CN(c2ccn(-c3ccccc3)c2)C(=O)O1", "10.5 µM"],
  ["CC(=O)NC[C@H]1CN(c2ccn(N3CCOCC3)c2)C(=O)O1", "> 100 µM"],
  ["CC(=O)NC[C@H]1CN(c2ccn(-c3ccc(N4CCOCC4)c(F)c3)c2)C(=O)O1", "49 µM"],
  ["CC(=O)NC[C@H]1CN(c2ccn(-c3cccc(F)c3)c2)C(=O)O1", "9.4 µM"],
  ["NNC(=O)c1ccncc1", "0.06 µM"],
  ["CC(=O)NC[C@H]1CN(c2ccn(-c3ccc(N4CCSCC4)c(F)c3)c2)C(=O)O1", "12.2 µM"],
  ["CC(=O)NC[C@H]1CN(c2ccc(N3CCSCC3)c(F)c2)C(=O)O1", "0.5 µM"]
]}

* * *

System: Mycolicibacterium fortuitum
assay_info: In vitro anti-mycobacterial activity against Mycobacterium fortuitum was determined
Type: functional
Quick list: MIC50 per entry.

{"columns": ["compound_smiles", "MIC50"],
 "data": [
  ["CC(=O)NC[C@H]1CN(c2ccn(-c3cccc(F)c3)c2)C(=O)O1", "> 100 µM"],
  ["CC(=O)NC[C@H]1CN(c2ccn(-c3ccc(F)cc3)c2)C(=O)O1", "> 100 µM"],
  ["CC(=O)NC[C@H]1CN(c2ccn(-c3ccc(N4CCSCC4)c(F)c3)c2)C(=O)O1", "> 100 µM"],
  ["CC(=O)NC[C@H]1CN(c2ccn(-c3ccc(N4CCOCC4)c(F)c3)c2)C(=O)O1", "> 100 µM"],
  ["CC(=O)NC[C@H]1CN(c2ccc(N3CCSCC3)c(F)c2)C(=O)O1", "> 100 µM"],
  ["CC(=O)NC[C@H]1CN(c2ccn(N3CCOCC3)c2)C(=O)O1", "> 1000 µM"],
  ["CC(=O)NC[C@H]1CN(c2ccn(-c3ccccc3)c2)C(=O)O1", "> 100 µM"],
  ["NNC(=O)c1ccncc1", "> 100 µM"],
  ["CC(=O)NC[C@H]1CN(c2ccn(-c3ccccc3F)c2)C(=O)O1", "88.6 µM"]
]}

* * *

System: Mycobacterium tuberculosis
assay_info: In vitro anti-mycobacterial activity against Mycobacterium tuberculosis C.I. 1104, determined by the MTT method
Assay type: functional
Quick list: MIC90 per entry.
parameter: MIC90

{"columns": ["compound_smiles", "measured_on", "observed_measurement"],
 "data": [
  ["NNC(=O)c1ccncc1", "Mycobacterium tuberculosis", "0.2 µM"],
  ["CC(=O)NC[C@H]1CN(c2ccn(-c3ccccc3)c2)C(=O)O1", "Mycobacterium tuberculosis", "77.8 µM"],
  ["CC(=O)NC[C@H]1CN(c2ccn(-c3ccc(N4CCSCC4)c(F)c3)c2)C(=O)O1", "Mycobacterium tuberculosis", "31 µM"],
  ["CC(=O)NC[C@H]1CN(c2ccn(-c3cccc(F)c3)c2)C(=O)O1", "Mycobacterium tuberculosis", "76.9 µM"],
  ["CC(=O)NC[C@H]1CN(c2ccn(-c3ccc(N4CCOCC4)c(F)c3)c2)C(=O)O1", "Mycobacterium tuberculosis", "> 100 µM"],
  ["CC(=O)NC[C@H]1CN(c2ccc(N3CCSCC3)c(F)c2)C(=O)O1", "Mycobacterium tuberculosis", "2.5 µM"]
]}
